Target: T1, human amylin receptor (amylin 3(a) receptor: human calcitonin receptor with RAMP-3) (human, UniProt P30988 25-474; O60896 24-148)
T1 sequence (looked up) 1: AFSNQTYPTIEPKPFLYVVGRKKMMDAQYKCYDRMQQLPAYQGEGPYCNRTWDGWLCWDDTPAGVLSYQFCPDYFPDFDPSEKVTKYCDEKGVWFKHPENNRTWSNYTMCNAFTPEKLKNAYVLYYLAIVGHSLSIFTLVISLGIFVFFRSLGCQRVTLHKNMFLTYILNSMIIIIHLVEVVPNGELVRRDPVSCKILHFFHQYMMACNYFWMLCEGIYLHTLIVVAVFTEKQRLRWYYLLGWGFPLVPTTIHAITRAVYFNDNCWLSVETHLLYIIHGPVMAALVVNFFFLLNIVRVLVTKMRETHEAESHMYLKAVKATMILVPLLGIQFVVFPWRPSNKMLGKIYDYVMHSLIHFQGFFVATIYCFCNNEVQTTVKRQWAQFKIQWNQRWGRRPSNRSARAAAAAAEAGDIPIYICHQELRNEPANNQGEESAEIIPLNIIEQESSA
T1 sequence (looked up) 2: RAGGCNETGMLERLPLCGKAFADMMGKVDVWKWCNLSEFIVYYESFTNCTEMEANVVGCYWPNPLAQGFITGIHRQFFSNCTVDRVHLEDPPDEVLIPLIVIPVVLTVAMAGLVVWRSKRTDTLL
Experiment: cell-based or functional assay
MEASURED_PARAMETER: hAmylin-R funct. EC50

IN: Please report hAmylin-R funct. EC50 for the following binder: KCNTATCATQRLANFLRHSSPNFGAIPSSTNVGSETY (C20 diacid-gGlu on the alpha amino group of the N-terminal residue; disulfide bridge Cys2-Cys7; C-terminal amide, also called compound 23) [N^α1-[(4S)-4-carboxy-4-(19-carboxynonadecanoylamino)butanoyl]-[Arg17,Pro21,Pro27,Glu35]-h-amylin]
OUT: 0.34 nM

IN: Note hAmylin-R funct. EC50 for the binder shown: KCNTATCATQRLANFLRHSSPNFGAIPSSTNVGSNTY (C20 diacid-gGlu-2xOEG on the alpha amino group of the N-terminal residue; disulfide bridge Cys2-Cys7; C-terminal amide, also called compound 24)
OUT: 0.433 nM

IN: Quickly give me recorded hAmylin-R funct. EC50 for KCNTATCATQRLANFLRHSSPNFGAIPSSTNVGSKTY (C20 diacid-gGlu on the alpha amino group of the N-terminal residue; disulfide bridge Cys2-Cys7; C-terminal amide, also called compound 34) [N^α1-[(4S)-4-carboxy-4-(19-carboxynonadecanoylamino)butanoyl]-[Arg17,Pro21,Pro27,Lys35]-h-amylin]
OUT: 0.313 nM
